Data provenance is patent US12364709B2.

- assay protocol: 5 day repeat oral dosing PK of AMXT 1501 dicaprate
- Format: in vivo, beagle dogs
- condition details: both sexes, beagle, dog, plasma, po, 32 mg/kg, 32 mg/kg PO once daily, Day 5, group mean; read-out: Tmax Mean
parameter measured: Tmax (h)
Give bare numbers, in h.

Notebook: CCCCCCCCCCCCCCCC(=O)NCCCC[C@@H](N)C(=O)NCCCNCCCCNCCCN [AMXT 1501 dicaprate] , Tmax read as 6.67

----------
- assay protocol: 28-day repeat-dose toxicity study, toxicokinetics of AMXT 1501 dicaprate
- Format: in vivo, beagle dogs
- condition details: both sexes, beagle, dog, plasma, po, 16 mg/kg/day, 16 mg/kg/day PO, DFMO 200 mg/kg/day, Day 1, M+F combined; read-out: AUC0-24 hr Mean
parameter measured: AUC(0-t) (ng·h/mL)
Answers are plain numbers, in ng·h/mL.

Notebook: CCCCCCCCCCCCCCCC(=O)NCCCC[C@@H](N)C(=O)NCCCNCCCCNCCCN [AMXT 1501 dicaprate] , AUC(0-t) read as 2310
